Tested on: parasites (ring stage parasites, parasite growth)
Experimental details: Parasite LDH growth assay (Parasite Assay), antiparasite potency
Assay type: cell-based
Test settings: 72 h, 72 hours growth, LDH readout; Table 3
Hi there, I'd appreciate the recorded pEC50 for every entry that follows.
Answers are plain numbers, as −log10 of the molar value.

Reference set (2 entries):
COCC[C@H]([C@@H]1C[C@H]1C(=O)N[C@@H]1CC(C)(C)Oc2cc(C)c(C)cc21)N1C(=N)NC(C)(C)CC1=O [Example 138B] : 7.74
CC1(C)CC(=O)N(C[C@@H]2C[C@H]2C(=O)N[C@H]2CC(C)(C)Oc3ccc(C(F)(F)F)cc32)C(=N)N1 : 6.77

Now consider the entry below.
input: Which pEC50 value is on record for COCC[C@H]([C@@H]1C[C@H]1C(=O)N[C@H]1CC(C)(C)Oc2cc(Cl)ccc21)N1C(=N)NC(C)(C)CC1=O [Example 89A] ?
output: 8.25

---

System: parasites (ring stage parasites, parasite growth)
Experimental details: Parasite LDH growth assay (Parasite Assay), antiparasite potency
Format: cell-based
Test settings: 72 h, 72 hours growth, LDH readout; Table 3
From the text: Assessing Antiparasite Potency in a Parasite LDH Growth Assay (Parasite Assay) The parasite stock was maintained at […] in RPMI-Hepes media buffered with sodium bicarbonate and supplemented with […]. […] On the day of assay set up, a blood smear of the parasite culture was Giemsa stained and counted. […]
Lab note: cut-off is 30 nM. Strictly less in EC50 is 1 (yes). Exactly 30 nM or more is 0 (no).

CC1[C@@H]([C@H](c2cccnc2)N2C(=N)NC(C)(C)CC2=O)[C@@H]1C(=O)N[C@H]1CC(C)(C)Oc2ccccc21 (stereo partly shown) [Example 57B] : 0 (no)

input: Given CC1(C)CC(=O)N([C@H](c2cccnc2)[C@@H]2C[C@H]2C(=O)NC2CC(C)(C)Oc3cccc(F)c32)C(=N)N1 (stereo partly shown) [Example 86A] , is recorded EC50 strictly lower than 30 nM?
output: 1 (yes)

input: Also, COCC[C@H]([C@@H]1C[C@H]1C(=O)N[C@@H]1CC(C)(C)Oc2cc(C)c(Cl)cc21)N1C(=N)NC(C)(C)CC1=O [Example 137A] please.
output: 1 (yes)

input: Also, COCC[C@H]([C@@H]1C[C@H]1C(=O)NC1CC(C)(C)Oc2ccccc21)N1C(=N)NC(C)(C)CC1=O (stereo partly shown) [Example 23A] please.
output: 1 (yes)

---

Tested on: parasites (ring stage parasites, parasite growth)
Experimental details: Parasite LDH growth assay (Parasite Assay), antiparasite potency
Type: cell-based
Test settings: 72 h, 72 hours growth, LDH readout; Table 3
Hi there, I'd appreciate the recorded EC50 for every entry that follows.
One number for each entry, in nM.

Reference set (5 entries):
CC1(C)CC(=O)N([C@@H](c2ccc(C#N)cc2)[C@@H]2C[C@H]2C(=O)N[C@H]2CC(C)(C)Oc3ccccc32)C(=N)N1 [Example 45B] : 220
COc1cncc([C@H]([C@@H]2C[C@H]2C(=O)N[C@H]2CC(C)(C)Oc3ccccc32)N2C(=N)NC(C)(C)CC2=O)c1 [Example 40] : 3.1
COCC[C@H]([C@@H]1C[C@H]1C(=O)N[C@H]1CC(C)(C)Oc2cc(OC)ccc21)N1C(=N)NC(C)(C)CC1=O [Example 70B] : 19
COCC[C@H]([C@@H]1C[C@H]1C(=O)N[C@@H]1CC(C)(C)Oc2cc(OC(F)(F)F)ccc21)N1C(=N)NC(C)(C)CC1=O [Example 134A] : 71
CC[C@]1(C)CC(=O)N([C@H](c2cncc(F)c2)[C@@H]2C[C@H]2C(=O)N[C@@H]2c3ccccc3OCC2(C)C)C(=N)N1 [Example 102A] : 0.8

Now consider the entry below.
input: Look up EC50 with parasites (ring stage parasites, parasite growth) for this compound: COCC[C@H]([C@@H]1C[C@H]1C(=O)N[C@@H]1CC(C)(C)Oc2ccc(F)cc21)N1C(=N)NC(C)(C)CC1=O [Example 72A]
output: 11
